# testTarget: T1, MUC1 on HCT116/MUC1 cells (UniProt P15941 24-1255, limits assumed)
# T1 construct: whole, on cells; also called MUC1 overexpressed cell line
# T1 sequence (P15941 24-1255 limits assumed): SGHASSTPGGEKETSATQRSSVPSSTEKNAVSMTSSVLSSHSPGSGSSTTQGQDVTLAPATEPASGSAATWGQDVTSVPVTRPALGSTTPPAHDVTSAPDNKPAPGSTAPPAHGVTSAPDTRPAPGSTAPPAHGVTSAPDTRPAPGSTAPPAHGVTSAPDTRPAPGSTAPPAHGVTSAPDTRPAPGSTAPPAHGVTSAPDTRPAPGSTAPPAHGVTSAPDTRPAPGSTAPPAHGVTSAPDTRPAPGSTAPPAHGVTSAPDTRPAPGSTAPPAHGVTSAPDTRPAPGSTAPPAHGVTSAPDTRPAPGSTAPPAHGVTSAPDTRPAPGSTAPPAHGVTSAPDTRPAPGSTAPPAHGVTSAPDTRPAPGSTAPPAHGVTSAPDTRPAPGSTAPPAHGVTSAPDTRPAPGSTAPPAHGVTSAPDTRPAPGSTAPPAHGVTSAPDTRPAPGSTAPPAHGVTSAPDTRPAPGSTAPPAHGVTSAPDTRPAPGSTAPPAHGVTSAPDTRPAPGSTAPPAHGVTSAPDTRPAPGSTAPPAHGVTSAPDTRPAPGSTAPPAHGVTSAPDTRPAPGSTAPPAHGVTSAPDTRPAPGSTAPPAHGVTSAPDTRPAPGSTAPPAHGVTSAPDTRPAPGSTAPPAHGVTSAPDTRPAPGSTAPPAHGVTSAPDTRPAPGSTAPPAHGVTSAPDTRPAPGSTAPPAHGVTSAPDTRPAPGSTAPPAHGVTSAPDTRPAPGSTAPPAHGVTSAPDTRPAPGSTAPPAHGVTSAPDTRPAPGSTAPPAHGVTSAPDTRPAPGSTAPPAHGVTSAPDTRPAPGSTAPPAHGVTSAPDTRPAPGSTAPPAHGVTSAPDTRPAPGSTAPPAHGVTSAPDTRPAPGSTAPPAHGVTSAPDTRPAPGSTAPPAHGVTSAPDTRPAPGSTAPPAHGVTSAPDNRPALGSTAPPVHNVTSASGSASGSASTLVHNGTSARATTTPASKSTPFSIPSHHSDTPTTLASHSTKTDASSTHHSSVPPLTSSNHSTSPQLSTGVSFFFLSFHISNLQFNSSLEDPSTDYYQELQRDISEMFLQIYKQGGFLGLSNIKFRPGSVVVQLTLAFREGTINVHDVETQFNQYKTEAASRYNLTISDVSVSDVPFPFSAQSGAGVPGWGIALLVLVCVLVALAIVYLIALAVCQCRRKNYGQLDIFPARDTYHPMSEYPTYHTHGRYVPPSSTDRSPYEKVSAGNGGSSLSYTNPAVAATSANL
# experimentNotes: FACS titration, HCT116/MUC1 cells, antibody at 1.953 nM
# Procedure: To assess cell binding, 2×10⁵ HCT116/MUC1 cells per well were washed with PBS twice and incubated in 200 μl of serial dilutions of chimeric or humanized antibodies for 1 hour at room temperature. After washing 3 times with PBS, secondary antibody (2 μg/ml Alexa Flour®488 goat anti-human IgG) was added to cells and incubated for 30 minutes at room temperature. After washing with PBS, cells were analyzed by using FACSCalibur (BD Bioscience, San Jose, Calif.) and Flowjo software.
measurementName: geometric mean

Worked cases, answers included:
VH1 + VL1 (antibody, V domains shown, Humanized IgG expressed in HEK293; also called humanized antibody VH1+VL1) VH: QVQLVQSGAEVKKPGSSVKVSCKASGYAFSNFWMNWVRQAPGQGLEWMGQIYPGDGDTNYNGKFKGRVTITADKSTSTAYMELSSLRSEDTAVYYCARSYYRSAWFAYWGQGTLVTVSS VL: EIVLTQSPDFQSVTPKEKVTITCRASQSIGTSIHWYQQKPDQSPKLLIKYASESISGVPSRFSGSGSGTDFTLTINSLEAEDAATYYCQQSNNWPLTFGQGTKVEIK
5.68
VH1 + VL4 (antibody, V domains shown, Humanized IgG expressed in HEK293; also called humanized antibody VH1+VL4) VH: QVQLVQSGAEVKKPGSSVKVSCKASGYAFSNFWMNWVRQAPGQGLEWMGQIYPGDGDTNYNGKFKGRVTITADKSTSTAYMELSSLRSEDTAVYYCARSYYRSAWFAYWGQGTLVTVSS VL: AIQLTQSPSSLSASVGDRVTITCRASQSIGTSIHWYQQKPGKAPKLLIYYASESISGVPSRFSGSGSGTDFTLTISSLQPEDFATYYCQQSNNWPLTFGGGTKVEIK
3.16
VH5 + VL1 (antibody, V domains shown, Humanized IgG expressed in HEK293; also called humanized antibody VH5+VL1) VH: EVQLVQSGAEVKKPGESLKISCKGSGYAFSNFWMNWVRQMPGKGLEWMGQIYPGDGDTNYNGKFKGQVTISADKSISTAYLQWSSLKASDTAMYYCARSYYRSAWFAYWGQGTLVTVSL VL: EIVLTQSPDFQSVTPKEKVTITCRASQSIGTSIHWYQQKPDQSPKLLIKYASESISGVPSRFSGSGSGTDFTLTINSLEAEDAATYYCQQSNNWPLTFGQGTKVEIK
7.02
VH4 + VL1 (antibody, V domains shown, Humanized IgG expressed in HEK293; also called humanized antibody VH4+VL1) VH: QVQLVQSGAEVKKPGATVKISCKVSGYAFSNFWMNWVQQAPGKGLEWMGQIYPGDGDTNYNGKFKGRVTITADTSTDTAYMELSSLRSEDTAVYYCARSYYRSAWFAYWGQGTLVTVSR VL: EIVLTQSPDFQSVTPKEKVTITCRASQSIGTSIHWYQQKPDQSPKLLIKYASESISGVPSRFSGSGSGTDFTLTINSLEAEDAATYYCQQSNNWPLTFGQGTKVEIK
2.94
VH2 + VL3 (antibody, V domains shown, Humanized IgG expressed in HEK293; also called humanized antibody VH2+VL3) VH: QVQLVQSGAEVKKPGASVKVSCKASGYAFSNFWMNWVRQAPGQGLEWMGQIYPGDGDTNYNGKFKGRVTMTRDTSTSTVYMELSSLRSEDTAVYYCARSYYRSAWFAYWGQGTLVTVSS VL: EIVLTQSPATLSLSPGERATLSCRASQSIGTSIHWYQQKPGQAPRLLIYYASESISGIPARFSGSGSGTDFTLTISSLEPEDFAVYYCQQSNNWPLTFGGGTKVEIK
3.25

Look up geometric mean: VH3 + VL3 (antibody, V domains shown, Humanized IgG expressed in HEK293; also called humanized antibody VH3+VL3) VH: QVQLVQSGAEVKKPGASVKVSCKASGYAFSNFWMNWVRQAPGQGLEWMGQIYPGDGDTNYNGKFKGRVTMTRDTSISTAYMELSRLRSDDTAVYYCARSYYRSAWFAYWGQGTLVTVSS VL: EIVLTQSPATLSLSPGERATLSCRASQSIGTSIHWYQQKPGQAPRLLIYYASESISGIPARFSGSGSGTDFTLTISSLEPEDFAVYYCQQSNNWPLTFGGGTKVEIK 3.64

Look up geometric mean: VH5 + VL4 (antibody, V domains shown, Humanized IgG expressed in HEK293; also called humanized antibody VH5+VL4) VH: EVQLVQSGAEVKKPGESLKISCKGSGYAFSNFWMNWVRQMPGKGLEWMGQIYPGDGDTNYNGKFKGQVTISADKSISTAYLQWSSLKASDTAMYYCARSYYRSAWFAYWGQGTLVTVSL VL: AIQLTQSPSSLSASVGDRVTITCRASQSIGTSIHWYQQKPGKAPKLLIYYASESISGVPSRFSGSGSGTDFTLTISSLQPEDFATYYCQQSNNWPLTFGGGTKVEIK 5.71

Look up geometric mean: VH3 + VL1 (antibody, V domains shown, Humanized IgG expressed in HEK293; also called humanized antibody VH3+VL1) VH: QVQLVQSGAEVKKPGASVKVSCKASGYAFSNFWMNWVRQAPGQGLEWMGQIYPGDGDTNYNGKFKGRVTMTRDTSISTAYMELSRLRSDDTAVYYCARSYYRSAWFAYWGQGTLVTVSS VL: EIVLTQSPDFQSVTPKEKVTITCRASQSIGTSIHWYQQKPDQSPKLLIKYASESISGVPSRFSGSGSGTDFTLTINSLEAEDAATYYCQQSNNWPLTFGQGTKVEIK 11.4

Look up geometric mean: VH2 + VL4 (antibody, V domains shown, Humanized IgG expressed in HEK293; also called humanized antibody VH2+VL4) VH: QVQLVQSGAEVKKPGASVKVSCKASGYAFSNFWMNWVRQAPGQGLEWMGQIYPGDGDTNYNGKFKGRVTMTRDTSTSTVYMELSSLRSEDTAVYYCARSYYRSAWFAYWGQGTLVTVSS VL: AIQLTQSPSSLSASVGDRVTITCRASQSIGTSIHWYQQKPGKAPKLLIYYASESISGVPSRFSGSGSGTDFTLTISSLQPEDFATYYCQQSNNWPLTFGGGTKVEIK 5.22

Look up geometric mean: VH2 + VL1 (antibody, V domains shown, Humanized IgG expressed in HEK293; also called humanized antibody VH2+VL1) VH: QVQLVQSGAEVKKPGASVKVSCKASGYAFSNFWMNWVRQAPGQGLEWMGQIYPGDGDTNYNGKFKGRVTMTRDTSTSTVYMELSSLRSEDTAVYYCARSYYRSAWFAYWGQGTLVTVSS VL: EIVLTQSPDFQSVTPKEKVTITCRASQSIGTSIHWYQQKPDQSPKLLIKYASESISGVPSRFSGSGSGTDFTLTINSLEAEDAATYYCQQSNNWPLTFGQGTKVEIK 4.38
